Kindly state Na for each of the entries shown.
Organism: Rattus norvegicus
Assay: Open TG-GATES - Regimen: Single
Assay type: toxicity, organism-based, Sprague-Dawley
Design: regimen Single, gender Male, age 6 weeks
Details: in vivo, po, 0 mg/kg, 3 h, tissue Plasma, route gavage, dose level Control
Give bare numbers, in meq/L.

Here's what some known entries look like.
CCCCNC(=O)NS(=O)(=O)c1ccc(C)cc1 [TOLBUTAMIDE] | 141.6
CC(S)C(=O)NCC(=O)O (stereo not given) | 143.8
COc1cc2ncnc(Nc3ccc(F)c(Cl)c3)c2cc1OCCCN1CCOCC1 | 143.1
CCO | 140

Next up:
Please give the measured Na for this compound: CN(CCOc1ccc(CC2SC(=O)NC2=O)cc1)c1ccccn1.O=C(O)/C=C\C(=O)O (stereo not given) [ROSIGLITAZONE MALEATE] 139.8

Measured values drawn from ChEMBL document CHEMBL3885861 for this set.
